Could you please report measured GI50 for the items listed next?
test system: T47D; assay: Growth inhibition of human T47D cells; assay type: functional
Numbers only, in nM.

// worked examples, GI50 included
[
  {
    "COMPOUND": "COc1cccc2c1C(=O)c1c(O)c3c(c(O)c1C2=O)C[C@@](O)(C(=O)CO)C[C@@H]3O[C@H]1C[C@H](N)[C@H](O)[C@H](C)O1 [DOXORUBICIN]",
    "EXPERIMENTAL_READOUT": "GI50",
    "VALUE_UNITS": "nM",
    "REPORTED_VALUE": 120
  },
  {
    "COMPOUND": "CCCCCCCCC/C=C(/C)C[C@]1(C)C[C@H](C)[C@@H](CC(=O)O)OO1",
    "EXPERIMENTAL_READOUT": "GI50",
    "VALUE_UNITS": "nM",
    "REPORTED_VALUE": 980
  }
]

Prompt: Recorded GI50 for "CCCCCCCC/C=C(/C)C[C@]1(C)C[C@H](C)[C@@H](CC(=O)O)OO1" , please?
Response: 600
